Test: 10-day repeat-dose toxicity and toxicokinetics study in dogs
Format: in vivo, Beagle dog
Details: both sexes, Beagle, dog, in vivo; dogs, oral gavage, 10 days; read-out: No observed adverse effect level (NOAEL)
Measurement type: NOAEL at 10 days (mg/kg/day)
Numbers only, in mg/kg/day.

What value of measured NOAEL at 10 days is listed for CCOC(=O)CN(CCN(CCN(CC(=O)O)CC(=O)OCC)CC(=O)O)CC(=O)O ?
200

----------
Assay: Caco-2 transport study (apical to basolateral)
Type: in vitro ADME, human
Details: human, Caco-2; apical to basolateral; read-out: Apparent permeation coefficient
Measurement type: Papp A→B at 120 min
Enter the number, and then the unit.

What value of measured Papp A→B at 120 min is listed for CCOC(=O)CN(CCN(CCN(CC(=O)O)CC(=O)OCC)CC(=O)O)CC(=O)O ?
4.88 ×10⁻⁶ cm/s
